Molecular target: T1, Human EphA2 (human, UniProt P29317 24-976)
T1 construct: Endogenous EphA2 in fresh frozen human tumor tissue sections, not a recombinant protein; also called ephrin receptor A2; hEphA2
Assay: IHC/IF on frozen human tumor tissue: NSCLC-SQ
Observable: IHC score
No unit in the answer, please; the number alone is enough.

Below, each entry is followed by its recorded IHC score result.
Binder: AB-009815 (antibody, mouse IgG2a, V domains shown, Made on a mouse IgG2a framework) VH: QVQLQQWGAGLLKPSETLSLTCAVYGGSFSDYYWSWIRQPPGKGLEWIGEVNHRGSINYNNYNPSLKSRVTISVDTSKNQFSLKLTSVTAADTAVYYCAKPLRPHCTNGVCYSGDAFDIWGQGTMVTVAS VL: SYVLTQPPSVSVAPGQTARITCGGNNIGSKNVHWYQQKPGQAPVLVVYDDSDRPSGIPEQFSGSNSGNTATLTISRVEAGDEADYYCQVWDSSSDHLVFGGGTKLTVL
IHC score: 1

Binder: AB-009812 (antibody, mouse IgG2a, V domains shown, Made on a mouse IgG2a framework) VH: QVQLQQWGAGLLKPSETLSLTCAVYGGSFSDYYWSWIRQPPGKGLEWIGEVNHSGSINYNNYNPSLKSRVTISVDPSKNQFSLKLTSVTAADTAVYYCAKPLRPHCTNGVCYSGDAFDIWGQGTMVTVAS VL: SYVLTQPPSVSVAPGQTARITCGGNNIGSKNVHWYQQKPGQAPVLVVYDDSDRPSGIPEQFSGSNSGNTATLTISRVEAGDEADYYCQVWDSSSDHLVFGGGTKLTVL
IHC score: 1

Which value of IHC score has been reported for AB-009813 (antibody, mouse IgG2a, V domains shown, Made on a mouse IgG2a framework) VH: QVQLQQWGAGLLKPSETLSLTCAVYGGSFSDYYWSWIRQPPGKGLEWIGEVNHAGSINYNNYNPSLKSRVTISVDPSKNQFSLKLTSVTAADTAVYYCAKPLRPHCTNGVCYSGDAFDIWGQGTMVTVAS VL: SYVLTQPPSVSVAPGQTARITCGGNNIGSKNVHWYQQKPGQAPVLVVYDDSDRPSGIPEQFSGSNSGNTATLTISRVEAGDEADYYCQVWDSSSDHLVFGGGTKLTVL in the records?
1
